# measurement.target: Protein ENL (Homo sapiens, UniProt Q03111)
# Sequence (Q03111 whole entry): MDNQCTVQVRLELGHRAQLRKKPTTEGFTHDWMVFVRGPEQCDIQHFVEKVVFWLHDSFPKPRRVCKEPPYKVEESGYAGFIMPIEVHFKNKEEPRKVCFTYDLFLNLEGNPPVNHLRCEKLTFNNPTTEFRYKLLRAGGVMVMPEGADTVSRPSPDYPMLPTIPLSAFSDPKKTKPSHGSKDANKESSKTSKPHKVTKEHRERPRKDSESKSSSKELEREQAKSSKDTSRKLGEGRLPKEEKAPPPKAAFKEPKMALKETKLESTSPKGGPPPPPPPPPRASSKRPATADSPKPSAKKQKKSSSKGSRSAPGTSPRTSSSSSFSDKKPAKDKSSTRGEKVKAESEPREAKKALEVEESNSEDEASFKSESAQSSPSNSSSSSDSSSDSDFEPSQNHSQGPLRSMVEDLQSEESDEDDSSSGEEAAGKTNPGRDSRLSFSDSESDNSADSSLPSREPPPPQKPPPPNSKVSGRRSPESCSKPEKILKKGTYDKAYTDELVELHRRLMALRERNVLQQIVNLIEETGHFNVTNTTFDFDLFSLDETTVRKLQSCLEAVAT
Square brackets hold non-standard residues; d marks the D form. Peptide text beside a SMILES is read from it. * marks the point of attachment. X1 = CCn1cc(-c2ccccc2)nc1[C@@H]1CCCN1*; Ala(cPent) = N[C@@H](CC1CCCC1)C(=O)O; Dap = NC[C@H](N)C(=O)O
# Ki values compiled below
Provide only the numeric value, understood in nM.

Enquiry: Ki of CCn1cc(-c2ccccc2)nc1[C@@H]1CCCN1C(=O)[C@H](CC1CCCC1)NC(=O)[C@H](CN)NC(=O)[C@@H](NC(=O)[C@@H]1CCCN1C(=O)[C@H](CC(C)C)NC(C)=O)C(C)C (Ac-LPV[Dap][Ala(cPent)]-X1) on Protein ENL (Homo sapiens, UniProt Q03111)?
Return: 369

Next:
Enquiry: Find the measured Ki: item CC[C@H](C)[C@H](NC(=O)[C@@H]1CCCN1C(=O)[C@H](CC(C)C)NC(C)=O)C(=O)N[C@@H](CN)C(=O)N[C@@H](CC1CCCC1)C(=O)N1CCC[C@H]1C(=O)N[C@@H](CC(C)C)C(=O)N(C)C (Ac-LPI[Dap][Ala(cPent)]PL-NMe2) , target or system Protein ENL (Homo sapiens, UniProt Q03111).
Return: 90
